Kindly supply the reported Intrinsic MIC in CAMH values for the records listed here.
test system: P. aeruginosa ATCC 27853; test: MIC assay, CLSI broth microdilution in CAMH broth; assay type: cell-based, Pseudomonas aeruginosa; conditions: P. aeruginosa ATCC 278538

Take a look at these entries with their results.
1) Nc1nc(N)c2ccc3c(ccn3Cc3cc(Br)ccc3F)c2n1 :: >64¤
2) N#Cc1ccccc1-c1ccc(Cn2ccc3c4nc(N)nc(N)c4ccc32)cc1F :: >64¤
3) Nc1nc(N)c2ccc3c(ccn3Cc3ccc(C#Cc4ccccc4)cc3)c2n1 :: >64¤
4) Nc1nc(N)c2ccc3c(ccn3Cc3cccc(C#Cc4ccccc4)c3)c2n1 :: >64¤
5) Nc1nc(N)c2ccc3c(ccn3Cc3ccc(Br)cc3)c2n1 :: >128¤

List the reported Intrinsic MIC in CAMH of each compound below.
1. Nc1nc(N)c2ccc3c(ccn3Cc3ccc4ccccc4c3)c2n1
2. Nc1nc(N)c2ccc3c(ccn3Cc3ccc(Br)cc3Br)c2n1
3. N#Cc1cc(F)ccc1-c1ccc(Cn2ccc3c4nc(N)nc(N)c4ccc32)cc1
4. CC[C@H]1OC(=O)[C@H](C)[C@@H](O[C@H]2C[C@@](C)(OC)[C@@H](O)[C@H](C)O2)[C@H](C)[C@@H](O[C@@H]2O[C@H](C)C[C@H](N(C)C)[C@H]2O)[C@](C)(O)C[C@@H](C)CN(C)[C@H](C)[C@@H](O)[C@]1(C)O [AZM, azithromycin, reference compound]

# output
1. >128¤
2. >64¤
3. >64¤
4. 64¤

----------
System: E. coli N43
Assay: MIC assay, CLSI broth microdilution in CAMH broth
Type: cell-based, Escherichia coli
Method: MIC assays for various Gram-negative and Gram-positive strains were conducted in accordance with the CLSI guidelines for broth microdilution. A 96-well plate containing CAMH broth with 2-fold serial dilution of compounds was inoculated with log-phase bacterial at 5×10^5 CFU/mL. The final volume in each well was 100 μL. Each compound was tested in duplicate. […] Then the bacterial growth was tested by reading the plate with a SpectraMax iD5 plate reader (Molecular Devices, Inc.) at 600 nm. […]
Kindly supply the reported Intrinsic MIC in CAMH values for the records listed here.

Take a look at these entries with their results.
1) Nc1nc(N)c2ccc3c(ccn3Cc3ccc(C(=O)c4ccccc4)cc3)c2n1 :: ≤0.015¤
2) N#Cc1ccccc1-c1ccc(Cn2ccc3c4nc(N)nc(N)c4ccc32)c(F)c1 :: ≤0.063¤
3) Nc1nc(N)c2ccc3c(ccn3Cc3cccc(Br)c3)c2n1 :: 1¤

List the reported Intrinsic MIC in CAMH of each molecule below.
1. N#Cc1cc(F)ccc1-c1ccc(Cn2ccc3c4nc(N)nc(N)c4ccc32)cc1
2. Nc1nc(N)c2cnc3c(ccn3Cc3cccc(Br)c3)c2n1
3. Nc1nc(N)c2ccc3c(ccn3Cc3ccc(Br)cc3Br)c2n1
4. Nc1nc(N)c2ccc3c(ccn3Cc3ccc(C#Cc4ccccc4)cc3)c2n1
5. N#Cc1cccc(Cn2ccc3c4nc(N)nc(N)c4ccc32)c1

# output
1. <0.125¤
2. ≤0.063¤
3. <0.125¤
4. 32¤
5. ≤0.015¤

# input Entry under review: COc1cc(Cc2cnc(N)nc2N)cc(OC)c1OC [TMP, reference compound] . Reported Intrinsic MIC in CAMH?
# output <0.125¤

----------
tested on: K. pneumoniae ATCC 13883; test: MIC assay, CLSI broth microdilution in CAMH broth; assay type: cell-based, Klebsiella pneumoniae; conditions: K. pneumonias ATCC 13883
Kindly supply the reported Intrinsic MIC in CAMH values for the records listed here.

Take a look at these entries with their results.
1. Nc1nc(N)c2ccc3c(ccn3CC3CCCCC3)c2n1 :: 4¤
2. Nc1nc(N)c2cnc3c(ccn3Cc3cccc(Br)c3)c2n1 :: >64¤
3. COc1cc(Cc2cnc(N)nc2N)cc(OC)c1OC [TMP, reference compound] :: 2¤
4. Nc1nc(N)c2ccc3c(ccn3Cc3ccc(C#Cc4ccccc4)cc3)c2n1 :: >64¤
5. N#Cc1ccccc1-c1ccc(Cn2ccc3c4nc(N)nc(N)c4ccc32)c(F)c1 :: >64¤
6. Nc1nc(N)c2ccc3c(ccn3Cc3ccc(Br)cc3Br)c2n1 :: >64¤
7. Nc1nc(N)c2ccc3c(ccn3Cc3cc(Br)ccc3F)c2n1 :: 64¤
8. N#Cc1ccccc1-c1ccc(Cn2ccc3c4nc(N)nc(N)c4cnc32)cc1 :: >64¤
9. Nc1nc(N)c2ccc3c(ccn3CC#Cc3ccccc3)c2n1 :: 8¤
10. CC[C@H]1OC(=O)[C@H](C)[C@@H](O[C@H]2C[C@@](C)(OC)[C@@H](O)[C@H](C)O2)[C@H](C)[C@@H](O[C@@H]2O[C@H](C)C[C@H](N(C)C)[C@H]2O)[C@](C)(O)C[C@@H](C)CN(C)[C@H](C)[C@@H](O)[C@]1(C)O [AZM, azithromycin, reference compound] :: 32¤

List the reported Intrinsic MIC in CAMH of each compound below.
1. Cc1cc2c3nc(N)nc(N)c3ccc2n1Cc1ccc(-c2ccccc2C#N)cc1
2. Nc1nc(N)c2ccc3c(ccn3C3C=CCCC3)c2n1 (stereo not shown)
3. Nc1nc(N)c2ccc3c(ccn3Cc3ccc(C(F)(F)F)cc3)c2n1
4. Nc1nc(N)c2ccc3c(ccn3Cc3ccc(-c4ccccc4C(F)(F)F)cc3)c2n1
5. N#Cc1cc(F)ccc1-c1ccc(Cn2ccc3c4nc(N)nc(N)c4ccc32)cc1

# output
>64¤
64¤
8¤
>64¤
>64¤
